# protocol text: A CellTox Green Cytotoxicity Assay to monitor cytotoxicity in HEK293 cells - 40 hour (AID 1224871); also: nearly all actives have a fitted effect of over 45% in size
# recorded conditions: CellTox Green fluorescence; series mostly up to 76.8 µM
Results filed as inconclusive are left out. Calls of active or inactive are those of the source. Calls follow the shape of the dose curve; as a rule, active = well fitted activation curve with a large enough effect in the repeat runs; inconclusive = weak or mixed curves; inactive = flat fitted curve, though single readings scatter.
Output constraint: value belongs to active, inactive

compound	class label
Cc1ccc(C(=O)c2cc(O)c(O)c([N+](=O)[O-])c2)cc1	inactive
CCCCC(CC)COCC1CO1 (centres undefined)	inactive
OC(CCl)CCl	inactive

Turning now to a further compound:
How did this test come out for CC(=O)C1(C)CC2=C(CCCC2(C)C)CC1C (centres undefined) ?
active
